- targetOrSystem: Substance-P receptor (Homo sapiens, UniProt P25103, H197A)
- Sequence (P25103 whole entry H197A): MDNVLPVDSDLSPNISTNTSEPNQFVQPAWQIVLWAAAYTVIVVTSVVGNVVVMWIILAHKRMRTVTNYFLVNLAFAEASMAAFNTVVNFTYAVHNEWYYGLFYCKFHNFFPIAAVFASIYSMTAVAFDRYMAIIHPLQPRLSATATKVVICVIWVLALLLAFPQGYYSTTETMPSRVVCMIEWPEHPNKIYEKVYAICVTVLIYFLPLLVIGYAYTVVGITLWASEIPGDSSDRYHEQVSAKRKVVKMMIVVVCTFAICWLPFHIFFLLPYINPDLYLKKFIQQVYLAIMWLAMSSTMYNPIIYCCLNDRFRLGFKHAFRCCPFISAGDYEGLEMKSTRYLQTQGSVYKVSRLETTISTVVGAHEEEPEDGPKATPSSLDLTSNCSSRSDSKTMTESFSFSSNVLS
- protocolNotes: Binding affinity towards human mutant NK-1 receptor in which His-197 has been replaced by alanine (H197A)
Readings of IC50 for the listed molecules
Return type: number; implicit unit nM.

{"compoundStructure": "Cc1cc(C)cc(CO[C@H]2C3CCN(CC3)[C@H]2Cc2ccccc2)c1", "IC50 [nM]": 845}

Exam item: GET IC50 | system: Substance-P receptor (Homo sapiens, UniProt P25103, H197A) | item: FC(F)(F)c1cc(CO[C@H]2C3CCN(CC3)[C@H]2Cc2ccccc2)cc(C(F)(F)F)c1
Marked response: 500

Exam item: GET IC50 | system: Substance-P receptor (Homo sapiens, UniProt P25103, H197A) | item: FC(F)(F)c1cc(CO[C@H]2C3CCN(CC3)[C@H]2C(c2ccccc2)c2ccccc2)cc(C(F)(F)F)c1
Marked response: 330

Exam item: GET IC50 | system: Substance-P receptor (Homo sapiens, UniProt P25103, H197A) | item: Cc1cc(C)cc(CO[C@H]2C3CCN(CC3)[C@H]2C(c2ccccc2)c2ccccc2)c1
Marked response: 196

These entries and their values trace back to ChEMBL document CHEMBL1128165.
